# Assayed Target: Recombinant human cathepsin A (Homo sapiens (Human), UniProt P10619)
# Sequence (P10619 29-326): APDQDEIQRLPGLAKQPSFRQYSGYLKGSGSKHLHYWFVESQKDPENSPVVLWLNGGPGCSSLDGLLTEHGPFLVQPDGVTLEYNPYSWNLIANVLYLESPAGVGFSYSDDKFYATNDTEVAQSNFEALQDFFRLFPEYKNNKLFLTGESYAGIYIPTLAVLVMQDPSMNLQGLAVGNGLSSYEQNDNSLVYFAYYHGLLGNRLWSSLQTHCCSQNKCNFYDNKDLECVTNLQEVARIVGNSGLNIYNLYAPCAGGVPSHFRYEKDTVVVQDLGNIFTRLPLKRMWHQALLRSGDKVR
# Sequence (P10619 327-480): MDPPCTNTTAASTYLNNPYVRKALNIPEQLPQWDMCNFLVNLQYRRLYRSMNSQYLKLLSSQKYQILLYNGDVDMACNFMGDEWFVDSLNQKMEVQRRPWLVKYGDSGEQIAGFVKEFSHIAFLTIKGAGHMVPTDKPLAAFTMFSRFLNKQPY
# Test Protocol: Cathepsin A inhibitory activity (cleavage of Bodipy FL-labeled bradykinin, microfluidic capillary electrophoresis)
# Format: biochemical
# Condition Details: read-out: Activity (IC50, cathepsin A inhibitory activity)
Can you tell me log10(IC50) for the items I'm about to list?
Scale: decimal log of IC50, IC50 in µM.

> print(dat)
                             chemical.string  result.value
 1  COc1ncc(C(=O)N[C@@H](CC(=O)O)c2ccccc2Cl)cc1-c1ccc(F)cc1C          0.85
 2  COc1ccc(-c2cncc(C(=O)N[C@@H](CC(=O)O)c3ccccc3C)c2)cc1          1.06
 3  COc1ccc(C(=O)N[C@@H](CC(=O)O)c2ccccc2Cl)nc1-c1cc(C)cnc1Cl          0.94
 4  COc1ccc(C(=O)N[C@@H](CC(=O)O)c2ccccc2F)nc1-c1ccccc1C(=O)N(C)C          0.65
 5  Cc1ccccc1[C@H](CC(=O)O)NC(=O)c1cccc(-n2ccnc2)n1          1.05
 6  COc1ccc(F)c(-c2nc(C(=O)N[C@@H](CC(=O)O)c3ccc(C)cc3)ccc2OC)c1          0.06
 7  COc1ncc(C(=O)N[C@@H](CC(=O)O)c2ccccc2C)cc1-c1ccc(F)c(F)c1          0.95
 8  COc1ccccc1-c1cc(C(=O)N[C@@H](CC(=O)O)c2ccccc2C)cnc1OC          0.53
 9  Cc1ccccc1[C@H](CC(=O)O)NC(=O)c1ccc2cnccc2n1          0.49
10  Cc1ccccc1[C@H](CC(=O)O)NC(=O)c1cc(-c2ccccc2)ccn1          0.03

Please state, for each entry, its recorded log10(IC50).
1. COc1ccc(-c2nc(C(=O)N[C@@H](CC(=O)O)c3ccccc3F)ccc2OC)cc1
2. Cc1ccccc1[C@H](CC(=O)O)NC(=O)c1cccc(F)n1
3. COc1ccc(C(=O)N[C@@H](CC(=O)O)c2ccccc2Cl)nc1-c1cccc(C#N)c1

0.70
0.22
0.92

Please state, for each entry, its recorded log10(IC50).
1. COc1ncc(C(=O)N[C@@H](CC(=O)O)c2ccccc2C)cc1-c1ccc(C#N)cc1
2. COc1ccc(C(=O)N[C@@H](CC(=O)O)c2ccccc2C)nc1-c1cccc(-c2nnc(C)o2)c1
3. COc1ccc(C(=O)N[C@@H](CC(=O)O)c2ccccc2F)nc1-c1ccc(F)c(C)c1
4. COc1ccc(C(=O)N[C@@H](CC(=O)O)c2ccccc2F)nc1-c1cccc(C(C)=O)c1
5. COc1ncc(C(=O)N[C@@H](CC(=O)O)c2ccccc2C)cc1-c1ccc(C)cc1
6. COc1ccc(C(=O)N[C@@H](CC(=O)O)c2ccccc2Cl)nc1-c1ccc(Cl)c(F)c1
7. Cc1ccccc1[C@H](CC(=O)O)NC(=O)c1cncc(-c2cccc(F)c2F)c1

1. 1.02
2. 0.63
3. 0.62
4. 0.93
5. 0.73
6. 0.64
7. 0.70

Please state, for each entry, its recorded log10(IC50).
1. COc1ccc(C(=O)N[C@@H](CC(=O)O)c2ccccc2F)nc1-c1ccc(C)cc1C
2. COc1cccc(-c2cc(C(=O)N[C@@H](CC(=O)O)c3ccccc3C)cnc2OC)c1

1. 0.60
2. 0.92

Please state, for each entry, its recorded log10(IC50).
1. Cc1ccccc1[C@H](CC(=O)O)NC(=O)c1cncc(-c2ccc(F)cc2F)c1
2. COc1ccc(C(=O)N[C@@H](CC(=O)O)c2ccccc2F)nc1-c1cccc(Cl)c1
3. COc1cc(C(=O)N[C@@H](CC(=O)O)c2ccccc2C)nc(OC)n1

1: 0.51; 2: 0.24; 3: 0.02

Please state, for each entry, its recorded log10(IC50).
1. Cc1ccccc1[C@H](CC(=O)O)NC(=O)c1nc(F)ccc1F
2. Cc1ccccc1[C@H](CC(=O)O)NC(=O)c1ccc2nc[nH]c2n1
3. COc1cc(OC)nc(C(=O)N[C@@H](CC(=O)O)c2ccccc2C)n1
4. COc1ccc(C(=O)N[C@@H](CC(=O)O)c2ccccc2C)nc1-c1ccc(C#N)cc1
5. Cc1ccccc1[C@H](CC(=O)O)NC(=O)c1cncc(-c2ccc(Cl)cc2Cl)c1
6. COc1ccc(C(=O)N[C@@H](CC(=O)O)c2ccccc2F)nc1-c1ccc(C)c(F)c1

[0.45, 0.71, 0.62, 0.83, 0.71, 0.58]

Give the reported value of log10(IC50) for this record: `Cc1ccccc1[C@H](CC(=O)O)NC(=O)c1cc(N2CCOCC2)ccn1` 0.89

###

# Assayed Target: Recombinant human cathepsin A (Homo sapiens (Human), UniProt P10619)
# Test Protocol: Cathepsin A inhibitory activity (cleavage of Bodipy FL-labeled bradykinin, microfluidic capillary electrophoresis)
# Assay type: biochemical
# Condition Details: read-out: Activity [μM] (IC50, cathepsin A inhibitory activity)
Simple rule here: IC50 less than 2 µM is 1, otherwise -1.

Recorded results for 6 molecules are shown here.
> print(dat)
                            chemical.string  class.label
1  COc1ccc(C(=O)N[C@@H](CC(=O)O)c2ccccc2C)nc1-c1ccc(C)o1           -1
2  COc1ccccc1-c1cc(C(=O)N[C@@H](CC(=O)O)c2ccccc2Cl)cnc1OC           -1
3  COc1ccc(C(=O)N[C@@H](CC(=O)O)c2ccccc2C)nc1-c1cc(F)cc(F)c1            1
4  COc1ccc(C(=O)N[C@@H](CC(=O)O)c2ccccc2F)nc1-c1ccnc(N2CCOCC2)c1           -1
5  Cc1ccccc1[C@H](CC(=O)O)NC(=O)c1cccc(-c2cc(F)cc(F)c2)n1            1
6  COc1ccc(C(=O)N[C@@H](CC(=O)O)c2ccccc2Cl)nc1-c1ccc(C(F)(F)F)cc1           -1

Kindly review the next molecule as well.
is_below(IC50, 2 µM) for `COc1ccc(C(=O)N[C@@H](CC(=O)O)c2ccccc2F)nc1-c1cccc(C2(O)COC2)c1` ? -1

###

# Assayed Target: Recombinant human cathepsin A (Homo sapiens (Human))
# Test Protocol: Cathepsin A inhibitory activity (cleavage of Bodipy FL-labeled bradykinin, microfluidic capillary electrophoresis)
# Format: biochemical
# Condition Details: read-out: Activity (IC50, cathepsin A inhibitory activity)
Can you tell me pIC50 for the items I'm about to list?
One number for each entry, as −log10 of the molar value.

Example entries and their recorded answers appear below.
> print(dat)
                                   molecule  result.value
1  COc1ccc(C(=O)N[C@@H](CC(=O)O)c2ccccc2Cl)nc1-c1cccc(C(C)=O)c1 [compound 435]          5.38
2  COc1ccc(Cl)cc1-c1nc(C(=O)N[C@@H](CC(=O)O)c2ccc(C)cc2)ccc1OC [compound 233]          5.65
3  COc1ccc(C(=O)N[C@@H](CC(=O)O)c2ccccc2Cl)nc1-c1ccc(F)nc1 [compound 453]          5.19
4  COc1ccc(C(=O)N[C@@H](CC(=O)O)c2ccc(C)cc2)nc1-c1cc(C)cnc1Cl [compound 247]          5.07
5  COc1ccc(C(=O)N[C@@H](CC(=O)O)c2ccccc2F)nc1-c1cccc(F)c1 [compound 266]          5.90
6  Cc1cccc(C(=O)N[C@@H](CC(=O)O)c2ccccc2C)n1 [compound 10]          5.91
7  COc1ccc(-c2cccc(C(=O)N[C@@H](CC(=O)O)c3ccccc3C)n2)cc1 [compound 45]          5.51
8  COc1ccc(Cl)cc1-c1nc(C(=O)N[C@@H](CC(=O)O)c2ccccc2F)ccc1OC [compound 300]          5.39

Please state, for each entry, its recorded pIC50.
1. COc1ccc(C(=O)N[C@@H](CC(=O)O)c2ccccc2Cl)nc1-c1cccc(-c2nnc(C)o2)c1 [compound 484]
2. COc1ncc(C(=O)N[C@@H](CC(=O)O)c2ccccc2C)cc1-c1cccc(Cl)c1 [compound 413]
3. COc1ccc(C(=O)N[C@@H](CC(=O)O)c2ccccc2F)nc1-c1ccc(C#N)s1 [compound 283]
4. COc1ccc(C(=O)N[C@@H](CC(=O)O)c2ccc(C)cc2)nc1-c1ccc(C)cc1C [compound 224]
5. COc1ncc(C(=O)N[C@@H](CC(=O)O)c2ccccc2C)cc1-c1ccc(F)c(Cl)c1 [compound 406]
6. COc1ccc(C(=O)N[C@@H](CC(=O)O)c2ccccc2Cl)nc1-c1cccc(-c2ccccc2)c1 [compound 436]
7. COc1ccc(C(=O)N[C@@H](CC(=O)O)c2ccc(C)cc2)nc1-c1ccccc1C(=O)N(C)C [compound 228]

1. 5.17
2. 5.20
3. 5.27
4. 5.47
5. 5.00
6. 5.53
7. 5.40
